# ASSAY TARGET: MERTK (UniProt Q12866)
# Sequence (Q12866 whole entry, looked up): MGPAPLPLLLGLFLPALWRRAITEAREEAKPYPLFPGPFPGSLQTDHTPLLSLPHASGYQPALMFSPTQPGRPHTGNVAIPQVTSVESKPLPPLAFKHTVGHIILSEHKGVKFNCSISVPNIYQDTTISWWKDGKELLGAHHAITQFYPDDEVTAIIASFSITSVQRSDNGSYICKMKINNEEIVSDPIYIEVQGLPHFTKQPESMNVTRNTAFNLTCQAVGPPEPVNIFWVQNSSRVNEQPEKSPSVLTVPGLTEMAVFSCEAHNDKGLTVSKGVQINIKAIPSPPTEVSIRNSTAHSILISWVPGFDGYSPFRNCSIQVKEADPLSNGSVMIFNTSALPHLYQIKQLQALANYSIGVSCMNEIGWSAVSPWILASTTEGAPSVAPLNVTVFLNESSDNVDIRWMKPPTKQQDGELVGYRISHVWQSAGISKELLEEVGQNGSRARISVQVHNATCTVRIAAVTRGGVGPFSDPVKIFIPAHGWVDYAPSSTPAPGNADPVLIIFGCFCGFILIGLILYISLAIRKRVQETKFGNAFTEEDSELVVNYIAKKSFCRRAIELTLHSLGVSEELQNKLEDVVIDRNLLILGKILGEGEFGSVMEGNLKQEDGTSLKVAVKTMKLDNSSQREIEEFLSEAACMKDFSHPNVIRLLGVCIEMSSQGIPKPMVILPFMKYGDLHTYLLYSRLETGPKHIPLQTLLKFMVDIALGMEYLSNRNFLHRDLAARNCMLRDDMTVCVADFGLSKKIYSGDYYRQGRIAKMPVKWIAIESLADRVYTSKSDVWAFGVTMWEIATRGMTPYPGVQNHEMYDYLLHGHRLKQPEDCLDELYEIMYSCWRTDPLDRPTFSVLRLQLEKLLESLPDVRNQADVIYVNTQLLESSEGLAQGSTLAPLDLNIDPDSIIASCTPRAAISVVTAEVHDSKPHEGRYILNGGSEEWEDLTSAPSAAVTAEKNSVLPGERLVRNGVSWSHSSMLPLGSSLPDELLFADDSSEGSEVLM
# ASSAY COMMENT: phosphorylation enrichment, bacterial display (enrichment ratio); higher = better substrate or ligand; peptides without Tyr show the background;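 also: 11-residue human phosphosite peptides and single-mutation variants displayed on the E. coli surface, counted by deep sequencing, each peptide's frequency after selection divided by its frequency in the unselected input library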;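 also: frequency after pTyr selection over input frequency; kinase dosed for 20-30% of maximal phosphorylation in three min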
Parameter phosphorylation enrichment: see the listing below.
The response must contain the number and no unit.

>>> df
                     biosequence            measurement_name  measurement
0  SVVVPYEPAEV [TP53_Y220_P223A]  phosphorylation enrichment        0.488

Q) What does the data say about its phosphorylation enrichment? Entry: DSGRDYVSQFE [APOA1_Y53]
A) 0.409

Q) What does the data say about its phosphorylation enrichment? Entry: FQNGMYGLHQD [SGSH_Y89_H84Y_YF]
A) 0.456

Q) What does the data say about its phosphorylation enrichment? Entry: ILNANCMAKRL [GLDC_Y839_Y839C]
A) 0.42

Q) What does the data say about its phosphorylation enrichment? Entry: VKALKYKSMKI [ITGA11_Y1098_L1093V]
A) 0.276

Q) What does the data say about its phosphorylation enrichment? Entry: RTCSSYAIEKI [PARP15_Y520]
A) 0.344

Q) What does the data say about its phosphorylation enrichment? Entry: LFCLHYFHRTF [SRD5A2_Y91_V89L]
A) 0.66

Q) What does the data say about its phosphorylation enrichment? Entry: FRIGPYQPSVP [MATR3_Y784_N787S_YF]
A) 0.412

Q) What does the data say about its phosphorylation enrichment? Entry: RSHLSYDVTPE [IQGAP3_Y1098_P1097S]
A) 0.594

Q) What does the data say about its phosphorylation enrichment? Entry: WFKKFYDANYD [MAPRE2_Y158]
A) 0.399

Q) What does the data say about its phosphorylation enrichment? Entry: AHPGEYGAEAL [HBA1_Y25_A22P]
A) 0.443

Q) What does the data say about its phosphorylation enrichment? Entry: SRLDSYVRSLP [TRAPPC1_Y133]
A) 0.447

Q) What does the data say about its phosphorylation enrichment? Entry: QMRLKYSQSDL [SMC1A_Y714]
A) 0.296

Q) What does the data say about its phosphorylation enrichment? Entry: NVADHYGVFKP [ATP6V0D2_Y271_YF]
A) 0.435

Q) What does the data say about its phosphorylation enrichment? Entry: RELGEYPLAEF [ALDH1A3_Y492_A493P_YF]
A) 0.614

Q) What does the data say about its phosphorylation enrichment? Entry: LGPSDYFGEIV [PRKAR1A_Y323_A328V]
A) 0.529

Q) What does the data say about its phosphorylation enrichment? Entry: LLAGLYRGQAL [FGFR4_Y390]
A) 0.553

====

# ASSAY TARGET: EPHB1 (UniProt P54762)
# Sequence (P54762 whole entry, looked up): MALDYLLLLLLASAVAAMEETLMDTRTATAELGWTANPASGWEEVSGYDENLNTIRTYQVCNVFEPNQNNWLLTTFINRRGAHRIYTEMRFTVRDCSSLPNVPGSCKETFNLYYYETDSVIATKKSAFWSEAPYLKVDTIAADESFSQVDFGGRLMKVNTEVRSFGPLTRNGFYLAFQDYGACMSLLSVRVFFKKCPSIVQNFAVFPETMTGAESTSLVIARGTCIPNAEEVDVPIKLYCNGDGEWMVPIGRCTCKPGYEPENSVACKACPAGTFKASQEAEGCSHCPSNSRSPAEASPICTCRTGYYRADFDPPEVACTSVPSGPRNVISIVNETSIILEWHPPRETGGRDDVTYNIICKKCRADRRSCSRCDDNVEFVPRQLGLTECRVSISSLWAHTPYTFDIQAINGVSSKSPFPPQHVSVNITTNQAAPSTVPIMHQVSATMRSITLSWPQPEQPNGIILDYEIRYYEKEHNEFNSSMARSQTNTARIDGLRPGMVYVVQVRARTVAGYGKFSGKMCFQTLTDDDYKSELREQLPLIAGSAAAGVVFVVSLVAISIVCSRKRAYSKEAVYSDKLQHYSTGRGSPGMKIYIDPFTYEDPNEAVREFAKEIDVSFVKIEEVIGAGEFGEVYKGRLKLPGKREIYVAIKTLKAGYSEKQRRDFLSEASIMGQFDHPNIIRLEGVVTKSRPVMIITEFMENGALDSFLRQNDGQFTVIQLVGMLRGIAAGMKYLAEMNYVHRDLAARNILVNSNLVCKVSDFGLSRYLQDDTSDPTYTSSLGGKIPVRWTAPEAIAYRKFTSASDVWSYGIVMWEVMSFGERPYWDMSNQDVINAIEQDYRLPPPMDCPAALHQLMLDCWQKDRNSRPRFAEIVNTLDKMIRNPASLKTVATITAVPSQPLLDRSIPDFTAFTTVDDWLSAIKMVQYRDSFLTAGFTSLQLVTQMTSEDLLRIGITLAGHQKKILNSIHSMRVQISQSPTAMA
# ASSAY COMMENT: phosphorylation enrichment, bacterial display (enrichment ratio); higher = better substrate or ligand; peptides without Tyr show the background
We use 0.5 as the dividing line for phosphorylation enrichment: on or above the line is 1 (yes), below is 0 (no).

Use the examples below as a reference point.
>>> df
                       biosequence  class_assignment
0  ECKHLYSRKEG [PTPN11_Y263_L261H]            0 (no)
1   HGAKVYIDPFT [EPHB4_Y590_T587A]           1 (yes)
2          LEEFQYIGESQ [MSH2_Y856]           1 (yes)
3   FGYPGYQCKHY [TIMP3_Y177_S179C]            0 (no)

Q) Given YISLIYTNYEA [GSTP1_Y109] , state whether its phosphorylation enrichment is at least 0.5.
A) 1 (yes)

Q) Given DKATEYIQFMR [MAX_Y70_YF] , state whether its phosphorylation enrichment is at least 0.5.
A) 1 (yes)

Q) Given PELINYHQPNS [BTK_Y361_H364P] , state whether its phosphorylation enrichment is at least 0.5.
A) 1 (yes)

Q) Given LLVVLYKYRCF [PSEN1_Y154_Y159F] , state whether its phosphorylation enrichment is at least 0.5.
A) 1 (yes)

Q) Given GSETPYMDRTP [ESS2_Y335_V336M] , state whether its phosphorylation enrichment is at least 0.5.
A) 1 (yes)

====

Parameter phosphorylation enrichment: see the listing below.
# ASSAY TARGET: EPHB2 (UniProt P29323)
# Sequence (P29323 whole entry, looked up): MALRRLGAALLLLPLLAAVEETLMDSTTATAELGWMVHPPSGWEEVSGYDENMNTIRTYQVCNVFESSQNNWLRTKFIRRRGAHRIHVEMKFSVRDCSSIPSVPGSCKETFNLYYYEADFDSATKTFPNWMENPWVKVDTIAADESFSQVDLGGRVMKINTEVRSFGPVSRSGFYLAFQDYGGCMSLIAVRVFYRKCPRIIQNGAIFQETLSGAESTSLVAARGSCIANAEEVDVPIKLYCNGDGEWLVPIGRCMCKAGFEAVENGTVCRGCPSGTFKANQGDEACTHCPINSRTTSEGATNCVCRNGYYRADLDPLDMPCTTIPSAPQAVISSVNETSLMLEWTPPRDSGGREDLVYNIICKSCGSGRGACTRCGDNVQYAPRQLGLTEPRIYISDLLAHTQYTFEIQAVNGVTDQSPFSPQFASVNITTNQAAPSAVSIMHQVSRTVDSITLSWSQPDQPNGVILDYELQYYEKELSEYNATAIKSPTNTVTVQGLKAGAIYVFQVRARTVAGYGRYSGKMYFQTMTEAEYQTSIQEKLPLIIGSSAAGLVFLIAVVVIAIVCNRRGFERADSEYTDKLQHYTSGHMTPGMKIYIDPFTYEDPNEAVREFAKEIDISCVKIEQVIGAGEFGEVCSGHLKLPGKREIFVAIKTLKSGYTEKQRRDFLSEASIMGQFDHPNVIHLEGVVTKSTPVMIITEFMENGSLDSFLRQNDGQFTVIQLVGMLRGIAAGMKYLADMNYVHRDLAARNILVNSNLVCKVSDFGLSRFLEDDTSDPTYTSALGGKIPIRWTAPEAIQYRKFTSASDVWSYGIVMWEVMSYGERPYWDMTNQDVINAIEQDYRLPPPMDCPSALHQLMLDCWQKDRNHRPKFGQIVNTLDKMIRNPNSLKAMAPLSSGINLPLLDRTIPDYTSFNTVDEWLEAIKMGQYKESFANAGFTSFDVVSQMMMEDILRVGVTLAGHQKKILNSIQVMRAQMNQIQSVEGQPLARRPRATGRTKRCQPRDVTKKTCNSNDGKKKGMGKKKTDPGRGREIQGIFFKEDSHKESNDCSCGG
# ASSAY COMMENT: phosphorylation enrichment, bacterial display (enrichment ratio); higher = better substrate or ligand; peptides without Tyr show the background
The response must contain the number and no unit.

Please review the following examples before continuing.
                  biosequence  measurement
0    FHKALYTVRSY [PDE6C_Y266]        0.524
1  QPAGNYSLSSV [ARFGAP3_Y473]        0.638

From here, focus on the item given below.
Q) What does the data say about its phosphorylation enrichment? Entry: KSPGEYVNIEF [IRS1_Y896]
A) 0.736

====

# Test system: c-Abl (mouse)
# ASSAY COMMENT: phosphorylation enrichment, bacterial display (enrichment ratio); higher = better substrate or ligand; peptides without Tyr show the background
Parameter phosphorylation enrichment: see the listing below.
The response must contain the number and no unit.

Please review the following examples before continuing.
In [3]: df
Out[3]:
                     biosequence  measurement
0   VMAVAYRLAEQ [HK1_Y461_T457M]        0.708
1        YRIDHYLGKEM [G6PD_Y202]        0.706
2  SVVVPYEPAEV [TP53_Y220_P223A]        0.708

From here, focus on the item given below.
Q) What does the data say about its phosphorylation enrichment? Entry: HPWPQYTTRAP [FNDC1_Y1281]
A) 0.697

====

Parameter phosphorylation enrichment: see the listing below.
# ASSAY TARGET: Hck (UniProt P08631)
# Sequence (P08631 whole entry, looked up): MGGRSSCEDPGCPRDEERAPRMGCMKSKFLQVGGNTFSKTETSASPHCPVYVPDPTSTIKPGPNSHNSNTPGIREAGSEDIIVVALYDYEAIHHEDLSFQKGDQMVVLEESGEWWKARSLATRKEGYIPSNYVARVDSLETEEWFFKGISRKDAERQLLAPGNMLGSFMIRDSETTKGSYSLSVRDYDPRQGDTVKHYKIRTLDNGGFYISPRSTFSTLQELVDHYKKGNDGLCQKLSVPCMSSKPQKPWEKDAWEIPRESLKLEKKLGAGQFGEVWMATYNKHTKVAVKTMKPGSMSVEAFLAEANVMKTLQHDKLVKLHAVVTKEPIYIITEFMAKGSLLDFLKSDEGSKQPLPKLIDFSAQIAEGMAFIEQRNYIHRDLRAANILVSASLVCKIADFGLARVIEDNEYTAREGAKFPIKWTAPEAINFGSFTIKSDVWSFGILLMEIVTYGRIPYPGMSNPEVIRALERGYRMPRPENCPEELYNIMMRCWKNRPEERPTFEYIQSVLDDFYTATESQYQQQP
# ASSAY COMMENT: phosphorylation enrichment, bacterial display (enrichment ratio); higher = better substrate or ligand; peptides without Tyr show the background
The response must contain the number and no unit.

Please review the following examples before continuing.
>>> print(df.to_string())
                      biosequence          assay_target  measurement
0    IKIMGYFIRTI [IDS_Y490_S491F]  Hck (UniProt P08631)        0.497
1           DKATEYIQYMR [MAX_Y70]  Hck (UniProt P08631)        0.504
2  MANYVYKAGPS [MAML2_Y515_M514V]  Hck (UniProt P08631)        0.419
3        YRRITYHNWRH [PDE6B_Y556]  Hck (UniProt P08631)        0.477
4  KRRGPYEMSPS [PLPP7_Y172_T174M]  Hck (UniProt P08631)        0.445

From here, focus on the item given below.
Q) What does the data say about its phosphorylation enrichment? Entry: DFEGLYQEGGG [TMEM159_Y159_E154D]
A) 1.22

====

# ASSAY TARGET: Jak2 (UniProt O60674)
# Sequence (O60674 whole entry, looked up): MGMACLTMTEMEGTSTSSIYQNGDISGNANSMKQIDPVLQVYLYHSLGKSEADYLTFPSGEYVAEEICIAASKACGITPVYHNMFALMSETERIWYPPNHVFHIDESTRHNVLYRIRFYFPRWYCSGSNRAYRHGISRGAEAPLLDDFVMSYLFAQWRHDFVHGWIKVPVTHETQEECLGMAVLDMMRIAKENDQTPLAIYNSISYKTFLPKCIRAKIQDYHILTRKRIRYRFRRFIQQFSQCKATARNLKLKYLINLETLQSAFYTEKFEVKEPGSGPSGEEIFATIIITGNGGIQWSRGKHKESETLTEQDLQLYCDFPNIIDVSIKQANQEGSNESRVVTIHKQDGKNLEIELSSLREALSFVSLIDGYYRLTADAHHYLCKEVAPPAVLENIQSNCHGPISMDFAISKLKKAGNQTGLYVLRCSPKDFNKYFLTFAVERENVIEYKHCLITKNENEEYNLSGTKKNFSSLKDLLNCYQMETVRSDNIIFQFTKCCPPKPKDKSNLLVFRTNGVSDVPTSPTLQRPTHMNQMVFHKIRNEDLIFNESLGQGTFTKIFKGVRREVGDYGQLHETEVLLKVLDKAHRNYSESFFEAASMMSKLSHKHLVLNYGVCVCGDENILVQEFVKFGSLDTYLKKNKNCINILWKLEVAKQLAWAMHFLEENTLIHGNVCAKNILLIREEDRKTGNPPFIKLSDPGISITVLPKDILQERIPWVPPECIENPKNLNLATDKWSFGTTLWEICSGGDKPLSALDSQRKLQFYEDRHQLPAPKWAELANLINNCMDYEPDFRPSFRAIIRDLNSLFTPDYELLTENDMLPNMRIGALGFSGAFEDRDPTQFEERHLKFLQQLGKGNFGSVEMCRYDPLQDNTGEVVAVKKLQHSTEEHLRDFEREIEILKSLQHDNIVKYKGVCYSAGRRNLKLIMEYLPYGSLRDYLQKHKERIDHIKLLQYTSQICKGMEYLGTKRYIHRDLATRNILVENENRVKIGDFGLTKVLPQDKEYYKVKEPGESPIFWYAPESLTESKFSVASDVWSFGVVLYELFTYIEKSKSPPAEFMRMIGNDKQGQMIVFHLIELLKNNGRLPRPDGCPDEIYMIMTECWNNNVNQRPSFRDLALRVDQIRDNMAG
# ASSAY COMMENT: phosphorylation enrichment, bacterial display (enrichment ratio); higher = better substrate or ligand; peptides without Tyr show the background
Parameter phosphorylation enrichment: see the listing below.
The response must contain the number and no unit.

Please review the following examples before continuing.
                           biosequence           assay_target  measurement
0              PLRADYLIARV [HLCS_Y635]  Jak2 (UniProt O60674)        0.747
1         VDDEIYFFRKP [PBRM1_Y1289_YF]  Jak2 (UniProt O60674)         1.25
2  RQNNSYTCFTA [SLC20A2_Y386_R382Q_YF]  Jak2 (UniProt O60674)        0.951

Q) What does the data say about its phosphorylation enrichment? Entry: PFSNPYENSLI [EPOR_Y489_YF]
A) 3.41

Q) What does the data say about its phosphorylation enrichment? Entry: EVESPYEVRDY [GIGYF2_Y1168_H1171R]
A) 1.16

Q) What does the data say about its phosphorylation enrichment? Entry: KIIRWYVSSEG [ANK2_Y3907_R3906W]
A) 1.2

Q) What does the data say about its phosphorylation enrichment? Entry: SHSMRYFFTAV [HLA-C_Y31_D33F]
A) 1.13

Q) What does the data say about its phosphorylation enrichment? Entry: SVVVPYEPAEV [TP53_Y220_P223A]
A) 1.1

Q) What does the data say about its phosphorylation enrichment? Entry: PLRAYYLIARV [HLCS_Y635_D634Y]
A) 1.71

Q) What does the data say about its phosphorylation enrichment? Entry: CFTRQYTLPPG [HSPB1_Y142_K141Q]
A) 0.901

Q) What does the data say about its phosphorylation enrichment? Entry: FECKWYIPLTD [BCR_Y756_D752E_YF]
A) 1.32

Q) What does the data say about its phosphorylation enrichment? Entry: ISDNACQFMLT [MYH7_Y162_Y162C_YF]
A) 1.04

Q) What does the data say about its phosphorylation enrichment? Entry: SRLDSYVRSLP [TRAPPC1_Y133]
A) 0.556

Q) What does the data say about its phosphorylation enrichment? Entry: PLGVPYLDKPP [JMJD7_Y31_A28G]
A) 1.55

Q) What does the data say about its phosphorylation enrichment? Entry: REQREYLEQLN [CCDC88B_Y1277_D1279E]
A) 1.15

Q) What does the data say about its phosphorylation enrichment? Entry: PRPAGYPSTVS [CACNA1C_Y1832]
A) 0.55

Q) What does the data say about its phosphorylation enrichment? Entry: KGNMFYENSFA [EGFR_Y113_R108K_YF]
A) 0.751

Q) What does the data say about its phosphorylation enrichment? Entry: LQIPMYEVQWK [KIT_Y553_K550I]
A) 0.721

Q) What does the data say about its phosphorylation enrichment? Entry: GGPTYYIDTNA [ACTL6A_Y69]
A) 0.727

Q) What does the data say about its phosphorylation enrichment? Entry: ALRHFYKLNII [ETV6_Y402_YF]
A) 0.875

Q) What does the data say about its phosphorylation enrichment? Entry: VVPGSYDRLRV [IFT172_Y260_L257P]
A) 0.462

Q) What does the data say about its phosphorylation enrichment? Entry: HYEFKYVINAI [MAOA_Y268_C266F]
A) 1.55

Q) What does the data say about its phosphorylation enrichment? Entry: INASGYRVGPA [ACSM1_Y477_I479V]
A) 0.523

Q) What does the data say about its phosphorylation enrichment? Entry: EATKGHLDDPT [G6PD_Y322_Y322H]
A) 0.856

Q) What does the data say about its phosphorylation enrichment? Entry: FKNGDYNEVMK [LCT_Y1638]
A) 0.595
